# Tested on: Hs578T multi-cell spheroids, viability
# test-name: Anticancer human tumor Hs578T cell line growth inhibition [IpAb];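 also: drug exposure lasted 7 days before readout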
# measurement-conditions: second compound 0.316 µM; first compound 1 µM; hits give low values
value-type: viability, T/C (%)

INSERT INTO assay_data (molecule, value_type, measure_unit, value_reported) VALUES
  ('CCCS(=O)(=O)Nc1ccc(F)c(C(=O)c2c[nH]c3ncc(-c4ccc(Cl)cc4)cc23)c1F + CC(C)NCC(C(=O)N1CCN(c2ncnc3c2C(C)CC3O)CC1)c1ccc(Cl)cc1', 'viability, T/C', '%', 82.6),
  ('COc1c(OCCCN2CCOCC2)ccc2c3n(c(=NC(=O)c4cnc(N)nc4)nc12)CCN3 + CC(C)NCC(C(=O)N1CCN(c2ncnc3c2C(C)CC3O)CC1)c1ccc(Cl)cc1', 'viability, T/C', '%', 5.04),
  ('C=CC(=O)N1CCN(c2nc(=O)n(-c3c(C)ccnc3C(C)C)c3nc(-c4c(O)cccc4F)c(F)cc23)C(C)C1 (stereo unspecified) + CC(C)NCC(C(=O)N1CCN(c2ncnc3c2C(C)CC3O)CC1)c1ccc(Cl)cc1', 'viability, T/C', '%', 89.5),
  ('CCCS(=O)(=O)Nc1ccc(F)c(C(=O)c2c[nH]c3ncc(-c4ccc(Cl)cc4)cc23)c1F + CCN1CCN(Cc2ccc(Nc3ncc(F)c(-c4cc(F)c5nc(C)n(C(C)C)c5c4)n3)nc2)CC1', 'viability, T/C', '%', 79.9),
  ('C=CCn1c(=O)c2cnc(Nc3ccc(N4CCN(C)CC4)cc3)nc2n1-c1cccc(C(C)(C)O)n1 + CC(C)NCC(C(=O)N1CCN(c2ncnc3c2C(C)CC3O)CC1)c1ccc(Cl)cc1', 'viability, T/C', '%', 27.6),
  ('Cn1nccc1Nc1nccc(-c2ccn(C(CO)c3ccc(Cl)c(F)c3)c(=O)c2)n1 (stereo unspecified) + CC(C)NCC(C(=O)N1CCN(c2ncnc3c2C(C)CC3O)CC1)c1ccc(Cl)cc1', 'viability, T/C', '%', 60.9),
  ('C=CCn1c(=O)c2cnc(Nc3ccc(N4CCN(C)CC4)cc3)nc2n1-c1cccc(C(C)(C)O)n1 + CCN1CCN(Cc2ccc(Nc3ncc(F)c(-c4cc(F)c5nc(C)n(C(C)C)c5c4)n3)nc2)CC1', 'viability, T/C', '%', 55.6),
  ('Cc1nc(NC(=O)N2CCCC2C(N)=O)sc1-c1ccnc(C(C)(C)C(F)(F)F)c1 (stereo unspecified) + CCN1CCN(Cc2ccc(Nc3ncc(F)c(-c4cc(F)c5nc(C)n(C(C)C)c5c4)n3)nc2)CC1', 'viability, T/C', '%', 47.7),
  ('Cn1ncc(Cl)c1-c1cc(C(=O)NC(CN)Cc2cccc(F)c2)sc1Cl (stereo unspecified) + CC(C)NCC(C(=O)N1CCN(c2ncnc3c2C(C)CC3O)CC1)c1ccc(Cl)cc1', 'viability, T/C', '%', 54.5),
  ('Cn1ncc(Cl)c1-c1cc(C(=O)NC(CN)Cc2cccc(F)c2)sc1Cl (stereo unspecified) + CCN1CCN(Cc2ccc(Nc3ncc(F)c(-c4cc(F)c5nc(C)n(C(C)C)c5c4)n3)nc2)CC1', 'viability, T/C', '%', 47.6),
  ('CC1(C)CCC(CN2CCN(c3ccc(C(=O)NS(=O)(=O)c4ccc(NCC5CCOCC5)c([N+](=O)[O-])c4)c(Oc4cnc5[nH]ccc5c4)c3)CC2)=C(c2ccc(Cl)cc2)C1 + CCN1CCN(Cc2ccc(Nc3ncc(F)c(-c4cc(F)c5nc(C)n(C(C)C)c5c4)n3)nc2)CC1', 'viability, T/C', '%', 87.4);

Origin of values: PubChem BioAssay AID2060331
